Where do the numbers come from? From PubChem BioAssay (NCI).

Kindly state GI50 for each of the entries shown.
Tested on: SNB-75 CNS
Assay: NCI tumour cell line growth inhibition, 48 h

{"columns": ["compound", "GI50"],
 "data": [
  ["COc1cccc(CC(C)=C(c2ccc(OCCN(C)C)cc2)c2ccc(OCCN(C)C)cc2)c1", "1460 nM"],
  ["CO/N=C(/C)c1cccc(Nc2cc(-n3nnc4ccccc43)nc3ccccc23)c1", "> 100000 nM"],
  ["CC1(C)N=C(N)N=C(N)N1c1ccc(CCCCc2ccc(Cl)cc2S(=O)(=O)F)c(Cl)c1", "1390 nM"],
  ["CCCCOC(=O)CNC(=O)OC/C=C/C#CC#C/C=C/COC(=O)NCC(=O)OCCCC", "> 10000 nM"],
  ["CCCCC#CC1=C(Br)C(=O)OC1", "15600 nM"]
]}

Hi, could you look up GI50 for each item in my list?
1. CNCc1ccccc1-c1csc([C@@H](C)Nc2nc(C)nc3cc(OC)c(OC)cc23)c1
2. Cc1ccc(SC2c3ccc(C)cc3Oc3nc(N)c(C#N)c(N)c32)cc1 (centres undefined)
3. Cc1cc(Nc2ccc(NC(=O)c3ccc(Nc4ccnc5ccccc45)cc3)cc2)nc(N)n1
4. NC(=O)/C=C/C(=O)c1c(Cl)cccc1Cl

Result ::
1. 1330 nM
2. 1500 nM
3. 12200 nM
4. 1610 nM

----------
Test system: HCT-116 colon
Experiment: NCI tumour cell line growth inhibition, 48 h
testReadout: GI50

{"columns": ["compound", "measuredOn", "GI50"],
 "data": [
  ["Cc1ccc(SC2c3ccc(C)cc3Oc3nc(N)c(C#N)c(N)c32)cc1 (stereo not given)", "HCT-116 colon", "1.88 µM"]
]}

Hi, could you look up GI50 for each item in my list?
1. CN(C)CCNC(=O)c1cccc2ccc(-c3ccc(O)cc3)nc12
2. COc1cc(C(=O)N2CCN(C=O)C2=S)cc(OC)c1OC
3. COc1ccc(OC)c2c1[nH]c(=O)c1c3ccccc3cn21
4. C/C=C(\C)C(=O)O[C@H]1C=CC(=O)O[C@H]1CCC(=O)[C@H](C)O
5. COC(=O)c1ccc2c(c1)nc(NC(=O)c1ccccc1)n2CCCc1ccccc1
6. Cc1ccnc2[nH]c(-c3ccc4ccccc4c3)cc(=O)c12
7. CCN1CCN(C(=O)[C@@]2(C)CC[C@]3(C)CC[C@]4(C)C(=CC(=O)[C@@H]5[C@@]6(C)CC[C@H](OC7C[C@@H](O)[C@@H](O)C(C)O7)C(C)(C)[C@@H]6CC[C@]54C)[C@@H]3C2)CC1 (stereo not given in full)
8. N#Cc1c(NC(=O)NCc2ccccc2)sc2c1CCCCC2

Result ::
0.879 µM
35.6 µM
0.673 µM
2.87 µM
3.06 µM
0.428 µM
1.65 µM
0.528 µM

Query :: Provide the documented GI50 with HCT-116 colon as the system for C[N+](C)(C)CC1CCCc2ccccc2C1=O (stereo not given)
Result :: 4.27 µM

----------
Kindly state TGI for each of the entries shown.
Tested on: HT29 colon
Assay: NCI tumour cell line growth inhibition, 48 h

{"columns": ["compound", "testReadout", "observedValue"],
 "data": [
  ["CC(=O)OC(OC(C)=O)c1ccc2ccc3cccc4ccc1c2c34", "TGI", "38.3 µM"],
  ["O=C(CCN(C(=O)O)S(=O)(=O)c1ccc(NC(=O)c2ccccc2)cc1)Nc1ccccc1", "TGI", "> 100 µM"],
  ["O=C(N/N=C(\\c1ccccc1)c1ccccn1)NC1CCCCC1", "TGI", "> 100 µM"],
  ["O=C1CCC2(c3ccc(Cl)cc3)Nc3ncccc3N12 (stereo unspecified)", "TGI", "> 100 µM"],
  ["CCCCCCCCCCCCCC(=O)OCC(C[As](=O)(O)O)OC(=O)CCCCCCCCCCCCC (stereo unspecified)", "TGI", "> 100 µM"]
]}

Query :: Bench note: what TGI did `O=c1oc2ccc3ccccc3c2cc1-c1nc2ccccc2s1` show?
Result :: > 100 µM
